For each record, write down the corresponding pKi.
# Assay System: Dual specificity tyrosine-phosphorylation-regulated kinase 1B (Homo sapiens, UniProt Q9Y463)
# Sequence (Q9Y463 whole entry, the tested form may be a part): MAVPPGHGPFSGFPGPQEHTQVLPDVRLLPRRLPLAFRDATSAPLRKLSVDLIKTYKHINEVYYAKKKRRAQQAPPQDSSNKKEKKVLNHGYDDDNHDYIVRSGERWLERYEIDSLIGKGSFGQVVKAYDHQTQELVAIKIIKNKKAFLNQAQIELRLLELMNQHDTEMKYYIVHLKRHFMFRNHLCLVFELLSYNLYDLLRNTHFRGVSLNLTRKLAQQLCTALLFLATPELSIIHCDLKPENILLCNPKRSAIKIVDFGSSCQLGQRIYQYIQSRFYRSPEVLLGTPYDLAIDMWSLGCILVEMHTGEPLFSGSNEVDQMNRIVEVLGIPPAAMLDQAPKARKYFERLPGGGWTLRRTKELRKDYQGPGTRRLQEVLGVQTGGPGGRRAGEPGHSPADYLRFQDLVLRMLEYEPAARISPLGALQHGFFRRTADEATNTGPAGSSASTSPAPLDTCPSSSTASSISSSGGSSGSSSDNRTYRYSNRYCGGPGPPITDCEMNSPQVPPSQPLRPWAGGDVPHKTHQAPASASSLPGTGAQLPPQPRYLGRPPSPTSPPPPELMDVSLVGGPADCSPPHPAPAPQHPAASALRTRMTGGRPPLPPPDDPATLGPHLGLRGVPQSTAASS
# pKi = -log10(concentration in molar units)

Name the recorded pKi of the item "NC(=O)c1cc2c(-c3ccc(C(=O)NCc4ccccc4N)s3)c(Cl)ccc2s1" in your answer.
6.24

Quote pKi reported for "NC(=O)c1cc2c(-c3ccc(C(=O)N[C@H](CO)Cc4ccccc4)s3)cccc2s1" please.
6.14

Item "NC(=O)c1cc2c(-c3ccc(C(=O)NCc4cccc(Cl)c4)s3)cccc2s1" : provide pKi
5.36

Give a short answer stating reported pKi for "NC(=O)c1cc2c(-c3ccc(C(=O)NCc4ccccc4N)s3)cccc2s1" .
6.62

Identify measured pKi associated with "NC(=O)c1cc2c(-c3cc(N)c(C(=O)NC4CC4)s3)cccc2s1"
6.09

Answer with reported pKi of "NC(=O)c1cc2c(-c3ccc(C(=O)NCc4ccnc(Cl)c4)s3)cccc2s1"
6.19

Quick one: give measured pKi for "NC(=O)c1cc2c(-c3ccc(C(=O)NCc4ccc(N)cc4)s3)cccc2s1"
6.73

Please give measured pKi of the following entry: "NC(=O)c1cc2c(-c3ccc(C(=O)NCc4cccc(O)c4)s3)cccc2s1"
6.43

Read the entry "NC(=O)c1cc2c(-c3ccc(C(=O)NCc4cccc(O)c4)s3)c(Cl)ccc2s1" and write its reported pKi.
5.95

Report pKi, nothing else, for this compound: "NC(=O)c1cc2c(-c3ccc(C(=O)NCc4cccc(N)c4)s3)c(Cl)ccc2s1"
5.84

###

Please go through the items and note down their pIC50.
# Assay System: Dual specificity tyrosine-phosphorylation-regulated kinase 1A (Homo sapiens)
# Run Description: Inhibition of NanoLuc-fused human DYRK1A expressed in HEK293 cells using Nano-Glo as substrate incubated for 2 hrs by NanoBRET assay
# Type: cell-based
// field semantics: pIC50 = negative decimal log of concentration (mol/L)

Quick one: give measured pIC50 for "NC(=O)c1cc2c(-c3ccc(C(=O)NCc4ccccc4O)s3)cccc2s1"
5.36

Identify the reported pIC50 for the following entry. "NC(=O)c1cc2c(-c3ccc(C(=O)NCc4ccccc4N)s3)c(Cl)ccc2s1"
5.77

Look up pIC50 of "NC(=O)c1cc2c(-c3ccc(C(=O)NCc4ccccc4)s3)cccc2s1" and report it.
5.34

For the compound "NC(=O)c1cc2c(-c3ccc(C(=O)NCc4ccccc4N)s3)cccc2s1" , report pIC50.
5.96

Given "NC(=O)c1cc2c(-c3ccc(C(=O)NCc4ccnc(Cl)c4)s3)cccc2s1" , respond with its pIC50.
5.70

Quote pIC50 reported for "NC(=O)c1cc2c(-c3ccc(C(=O)NCc4ccc(N)cc4)s3)cccc2s1" please.
5.57

###

# Assay System: Dual specificity tyrosine-phosphorylation-regulated kinase 1B (Homo sapiens)
# Run Description: Inhibition of NanoLuc-fused human DYRK1B expressed in HEK293T cells using Nano-Glo as substrate incubated for 2 hrs by NanoBRET assay
# Assay type: cell-based
Kindly supply the reported pIC50 values for the records listed here.
Bear in mind: pIC50 is minus log10 of a mol/L concentration; give just that figure.

Give me measured pIC50, please, for this molecule: "NC(=O)c1cc2c(-c3ccc(C(=O)NCc4ccccc4N)s3)cccc2s1"
6.10

Give reported pIC50 value for "NC(=O)c1cc2c(-c3ccc(C(=O)NCc4ccccc4N)s3)c(Cl)ccc2s1"
6.15

Indicate the recorded pIC50 value for this molecule: "NC(=O)c1cc2c(-c3ccc(C(=O)NCc4ccc(N)cc4)s3)cccc2s1"
5.44

Return pIC50 (reported value) for this molecule: "NC(=O)c1cc2c(-c3ccc(C(=O)NCc4ccnc(Cl)c4)s3)cccc2s1"
5.74

Give the measured pIC50 for "NC(=O)c1cc2c(-c3ccc(C(=O)NCc4ccccc4)s3)cccc2s1"
5.37

Give pIC50 for "NC(=O)c1cc2c(-c3ccc(C(=O)NCc4ccccc4O)s3)cccc2s1"
5.47
